Reference source: patent US10231954B2

Biological target: UniProtKB O43318
Sequence (O43318 1-303 limits assumed): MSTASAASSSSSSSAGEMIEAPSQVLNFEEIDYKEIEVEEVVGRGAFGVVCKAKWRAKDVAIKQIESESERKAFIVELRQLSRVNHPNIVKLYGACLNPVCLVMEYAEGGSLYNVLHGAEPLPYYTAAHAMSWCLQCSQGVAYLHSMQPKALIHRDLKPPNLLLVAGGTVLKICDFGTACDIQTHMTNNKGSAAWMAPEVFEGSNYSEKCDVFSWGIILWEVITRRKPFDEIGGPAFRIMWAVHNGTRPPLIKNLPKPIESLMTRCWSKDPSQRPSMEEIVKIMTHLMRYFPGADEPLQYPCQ
Sequence (Q15750 437-504 partner limits assumed): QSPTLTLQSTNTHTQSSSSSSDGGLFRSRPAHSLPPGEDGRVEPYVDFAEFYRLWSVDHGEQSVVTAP
Test: Kinase profiling TAK1
Type: biochemical
Conditions: 100 micromolar inhibitor concentration; 100 is no change; read-out: residual kinase activity, TAK1
valueType: remaining activity at 100 µM

// worked examples, remaining activity at 100 µM included
CC(=O)Nc1nc2cc(C(F)(F)F)ccc2s1	45%
CC(=O)Nc1nc2cc(F)ccc2s1	46%

Query block: Which remaining activity at 100 µM is reported for this compound? CC(=O)Nc1nc2ccc([N+](=O)[O-])cc2s1
Result block: 58%

Query block: Which remaining activity at 100 µM is reported for this compound? CC(=O)Nc1nc2ccc(C(F)(F)F)cc2s1
Result block: 83%

Query block: Which remaining activity at 100 µM is reported for this compound? CC(=O)Nc1nc2ccc(C#N)cc2s1
Result block: 17%

Query block: Which remaining activity at 100 µM is reported for this compound? CC(=O)Nc1nc2ccc(O)cc2s1
Result block: 11%

Query block: Which remaining activity at 100 µM is reported for this compound? COc1ccc2sc(NC(C)=O)nc2c1
Result block: 50%
